The measured values listed here are drawn from patent US10259810B2.

Biological target: ΔF508-CFTR (Homo sapiens, UniProt P13569, DEL508-508)
Construct: host or cells: CFBE41o-, doxycycline-inducible
Sequence (P13569 with tags, fused parts or gaps DEL508-508): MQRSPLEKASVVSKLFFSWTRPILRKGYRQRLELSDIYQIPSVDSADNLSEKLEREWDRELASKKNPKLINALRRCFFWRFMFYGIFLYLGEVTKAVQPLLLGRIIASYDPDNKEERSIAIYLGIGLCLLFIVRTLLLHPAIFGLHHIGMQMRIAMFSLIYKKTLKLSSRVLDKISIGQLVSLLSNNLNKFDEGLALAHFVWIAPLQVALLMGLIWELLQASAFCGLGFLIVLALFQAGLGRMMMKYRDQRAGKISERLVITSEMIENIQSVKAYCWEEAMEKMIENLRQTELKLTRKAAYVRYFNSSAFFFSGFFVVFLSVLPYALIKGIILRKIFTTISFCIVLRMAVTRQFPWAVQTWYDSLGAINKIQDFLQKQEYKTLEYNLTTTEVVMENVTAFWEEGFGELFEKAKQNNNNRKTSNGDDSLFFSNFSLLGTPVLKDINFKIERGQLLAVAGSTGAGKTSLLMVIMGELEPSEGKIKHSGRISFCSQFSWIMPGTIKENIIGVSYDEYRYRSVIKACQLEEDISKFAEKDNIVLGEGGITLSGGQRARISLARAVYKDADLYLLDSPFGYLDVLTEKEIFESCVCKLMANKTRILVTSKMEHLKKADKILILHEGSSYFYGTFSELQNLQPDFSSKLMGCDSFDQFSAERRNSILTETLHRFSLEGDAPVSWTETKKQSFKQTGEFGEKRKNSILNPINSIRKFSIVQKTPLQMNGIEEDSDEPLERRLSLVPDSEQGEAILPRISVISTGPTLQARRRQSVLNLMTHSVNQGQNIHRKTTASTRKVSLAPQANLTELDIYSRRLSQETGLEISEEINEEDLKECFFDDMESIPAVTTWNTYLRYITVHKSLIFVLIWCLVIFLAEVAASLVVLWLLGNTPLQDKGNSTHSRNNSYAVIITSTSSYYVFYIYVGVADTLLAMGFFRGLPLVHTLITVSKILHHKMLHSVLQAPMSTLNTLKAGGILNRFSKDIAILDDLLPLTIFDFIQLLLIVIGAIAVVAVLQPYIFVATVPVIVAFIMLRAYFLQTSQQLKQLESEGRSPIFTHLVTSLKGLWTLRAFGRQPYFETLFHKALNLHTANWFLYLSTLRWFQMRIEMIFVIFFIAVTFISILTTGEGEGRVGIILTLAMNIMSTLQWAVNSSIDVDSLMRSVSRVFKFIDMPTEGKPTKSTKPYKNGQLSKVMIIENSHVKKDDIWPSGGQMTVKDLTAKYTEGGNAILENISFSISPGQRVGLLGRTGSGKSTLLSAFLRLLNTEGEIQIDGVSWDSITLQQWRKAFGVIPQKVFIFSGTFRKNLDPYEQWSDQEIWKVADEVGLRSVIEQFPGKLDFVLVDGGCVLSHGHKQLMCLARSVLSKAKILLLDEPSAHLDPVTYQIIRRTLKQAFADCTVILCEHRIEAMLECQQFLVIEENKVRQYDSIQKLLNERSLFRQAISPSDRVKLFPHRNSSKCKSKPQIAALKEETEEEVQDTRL
Experiment: CFTR cell surface levels using HRP-tagged ΔF508-CFTR expressing CFBE cells, intrinsic corrector capacity
Assay type: cell-based
Details: HRP-tagged ΔF508-CFTR expressing CFBE41o- cells; compound alone (intrinsic corrector capacity); 20 hours at 33° C.; read-out: EC50
ENDPOINT_NAME: EC50 (nM)
Write the number in nM without appending the unit.

COMPOUND | EC50, nM
CS(=O)(=O)NC(=O)c1cc(N2CCC(CN3CCOCC3)CC2)c2c(C3CCC3)nn(-c3ccc(F)cc3)c2n1 | 213

Entry `COCC1CCN(c2cc(C(=O)N3CCCCS3(=O)=O)nc3c2c(C2CCC2)nn3-c2ccccc2)CC1` needs its EC50 filled in; supply it. 384

Recall and state the measured EC50 for `CCS(=O)(=O)NC(=O)c1cc(-c2cnc(N(C)C)nc2)c2c(C3CN(C(=O)OC)C3)nn(C3CCCCC3)c2n1` . 1150

----------
Molecular target: ΔF508-CFTR (Homo sapiens, UniProt P13569, DEL508-508)
Construct: host or cells: CFBE41o-, doxycycline-inducible
Experiment: CFTR cell surface levels using HRP-tagged ΔF508-CFTR expressing CFBE cells, intrinsic corrector capacity
Assay type: cell-based
Settings: HRP-tagged ΔF508-CFTR expressing CFBE41o- cells; compound alone (intrinsic corrector capacity); 20 hours at 33° C.; read-out: EC50
Label key: Met means EC50 under 0.4 µM; Not met means EC50 of 0.4 µM or more.

Example entries begin here.
COMPOUND | MEASURED_TARGET | CAT
COC1CCN(c2cc(C(=O)NS(C)(=O)=O)nc3c2c(C(C)C)nn3-c2ccnc(N3CCCC3)c2)CC1 | ΔF508-CFTR (Homo sapiens, UniProt P13569, DEL508-508) | Met
COCCS(=O)(=O)NC(=O)c1cc(N2CCC(CN3CCOCC3)CC2)c2c(C3CCC3)nn(-c3ccc(F)cc3)c2n1 | ΔF508-CFTR (Homo sapiens, UniProt P13569, DEL508-508) | Met
CC(C)Oc1cc(-n2nc(C3CCC3)c3c(N4CCC(N5CCOCC5)CC4)cc(C(=O)NS(=O)(=O)N(C)C)nc32)ccn1 | ΔF508-CFTR (Homo sapiens, UniProt P13569, DEL508-508) | Met
CN(C)S(=O)(=O)NC(=O)c1cc(N2CCC(N3CCCC(F)C3)CC2)c2c(C3CCC3)nn(-c3ccc(F)cc3)c2n1 (stereo not drawn) | ΔF508-CFTR (Homo sapiens, UniProt P13569, DEL508-508) | Met
CCN1CCN(Cc2ccc(-c3cc(C(=O)NS(C)(=O)=O)nc4c3c(OC(C)C)nn4C3CCCCC3)cc2)CC1 | ΔF508-CFTR (Homo sapiens, UniProt P13569, DEL508-508) | Met

is_below(EC50, 0.4 µM) for `CS(=O)(=O)NC(=O)c1cc(OCCC2CCOCC2)c2c(C3CCC3)nn(-c3ccccc3)c2n1` ? Not met

Confirm or reject: EC50 of `COC[C@H]1CCCN1C1CCN(S(=O)(=O)NC(=O)c2cc(N3CCC(CN4CCCC4)CC3)c3c(C4CCC4)nn(-c4ccccc4)c3n2)CC1` lies strictly below 0.4 µM Not met

Hello, is EC50 of the following compound strictly smaller than 0.4 µM? `CCS(=O)(=O)NC(=O)c1cc(-c2cnc(N(C)C)nc2)c2c(C(C)C)nn(-c3cccc(N4CCOCC4)c3)c2n1` Not met

is_below(EC50, 0.4 µM) for `CN(C(=O)c1cc(N2CCC(CN3CCCC3)CC2)c2c(C3CCC3)nn(-c3ccccc3)c2n1)S(C)(=O)=O` ? Met

Consider the compound `COCC1CCN(c2cc(C(=O)NS(=O)(=O)c3cnn(C)c3)nc3c2c(C2CCC2)nn3-c2ccccc2)CC1` . Is its EC50 strictly less than 0.4 µM? Not met

Hi there! Is EC50 for `CCS(=O)(=O)NC(=O)c1cc(N2CCCCC2)c2c(C(C)C)nn(-c3cccc(C)c3)c2n1` below 0.4 µM, do you know? Not met

Dear reviewer, please state whether `CS(=O)(=O)NC(=O)c1cc(C2CCN(CC3CCOCC3)CC2)c2c(C3CCC3)nn(-c3ccc(F)cc3)c2n1` has EC50 strictly beneath 0.4 µM. Not met
